Data origin, for the record: ChEMBL document CHEMBL4831527

Tested Target: Human immunodeficiency virus type 1 reverse transcriptase (Human immunodeficiency virus 1, UniProt Q72547)
pIC50: −log10 of the molar value.
Assign class by pIC50: not lower than 7 means criterion met; lower than 7 means criterion not met.

Use these answered entries as a reference point.
# Chemical Structure, Category Label
rows = [
    ("Cc1cc(/C=C/C#N)cc(C)c1Oc1nc(Nc2ccc(CC#N)cc2)nc2c1CCCC2", "criterion met"),
    ("Cc1cc(C=O)cc(C)c1Oc1nc(Nc2ccc(C#N)nc2)nc2c1CCCC2", "criterion met"),
    ("Cc1cc(C#N)cc(C)c1Oc1nc(Nc2ccc(C#N)cc2)nc2c1CCCC2", "criterion met"),
    ("Cc1cc(C=O)cc(C)c1Oc1nc(Nc2ccc(C#N)cc2)nc2c1CCCC2", "criterion met"),
]

Record Cc1cc(C#N)cc(C)c1Oc1nc(Nc2ccc(CC#N)cc2)nc2c1CCCC2 ; criterion: pIC50 no lower than 7. Met?
criterion met

Record Cc1cc(C#N)cc(C)c1Oc1nc(Nc2ccc(C#N)nc2)nc2c1ccn2COCC[Si](C)(C)C ; criterion: pIC50 no lower than 7. Met?
criterion not met

Record Cc1cc(C#N)cc(C)c1Oc1nc(Nc2ccc(C#N)cc2)nc2c1ccn2COCC[Si](C)(C)C ; criterion: pIC50 no lower than 7. Met?
criterion not met

Record Cc1cc(C#N)cc(C)c1Oc1nc(Nc2ccc(C#N)nc2)nc2c1CCCC2 ; criterion: pIC50 no lower than 7. Met?
criterion met

Record Cc1cc(C#N)cc(C)c1Oc1nc(Nc2ccc(OC(F)(F)F)cc2)nc2c1CCCC2 ; criterion: pIC50 no lower than 7. Met?
criterion not met

Record Cc1cc(C#N)cc(C)c1Oc1nc(Nc2ccc(C#N)cc2)nc2c1ccn2CO ; criterion: pIC50 no lower than 7. Met?
criterion met

Record Cc1cc(C=O)cc(C)c1Oc1nc(Nc2ccc(C#N)cn2)nc2c1CCCC2 ; criterion: pIC50 no lower than 7. Met?
criterion met

Record Cc1cc(C#N)cc(C)c1Oc1nc(Nc2ccc(C#N)cn2)nc2c1ccn2COCC[Si](C)(C)C ; criterion: pIC50 no lower than 7. Met?
criterion not met

Record Cc1cc(C#N)cc(C)c1Oc1nc(Nc2ccc(C#N)nc2)nc2c1ccn2CO ; criterion: pIC50 no lower than 7. Met?
criterion met

Record Cc1cc(C#N)cc(C)c1Oc1nc(Nc2ccc(C#N)nc2)nn2cccc12 ; criterion: pIC50 no lower than 7. Met?
criterion met

Record Cc1cc(/C=C/C#N)cc(C)c1Oc1nc(Nc2ccc(C#N)cc2)nn2cccc12 ; criterion: pIC50 no lower than 7. Met?
criterion met

Record Cc1cc(C)c(Oc2nc(Nc3ccc(C#N)cc3)nc3c2CCCC3)c(C)c1 ; criterion: pIC50 no lower than 7. Met?
criterion not met

Record Cc1cc(/C=C/C(N)=O)cc(C)c1Oc1nc(Nc2ccc(C#N)cc2)nn2cccc12 ; criterion: pIC50 no lower than 7. Met?
criterion met
